Documented Percent Effect across a set of compounds
Target or test system: Sialic acid-binding Ig-like lectin 9 (Homo sapiens) (UniProt Q9Y336)
Sequence (Q9Y336 whole entry): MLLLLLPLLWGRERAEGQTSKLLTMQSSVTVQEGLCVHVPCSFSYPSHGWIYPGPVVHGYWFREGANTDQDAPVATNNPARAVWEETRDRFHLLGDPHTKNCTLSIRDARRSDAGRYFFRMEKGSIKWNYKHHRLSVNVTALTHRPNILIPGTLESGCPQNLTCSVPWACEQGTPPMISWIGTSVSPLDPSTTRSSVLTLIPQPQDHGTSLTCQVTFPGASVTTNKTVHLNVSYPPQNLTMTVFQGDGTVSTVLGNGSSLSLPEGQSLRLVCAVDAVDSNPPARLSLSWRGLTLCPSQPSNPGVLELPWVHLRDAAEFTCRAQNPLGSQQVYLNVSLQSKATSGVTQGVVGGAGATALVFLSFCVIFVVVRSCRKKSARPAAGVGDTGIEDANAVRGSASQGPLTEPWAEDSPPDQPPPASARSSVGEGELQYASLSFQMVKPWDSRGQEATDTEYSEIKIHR
Protocol: Hs-Siglec9 ALPHAscreen SOP 20170721
Parameters: scale not given: direction of the effect not stated beside the values
Experimental conditions: 10 µM
Give a bare numeral; the unit % is implied.

> print(dat)
                                   compound                     target.or.test.system  value.observed
1  Cc1nnc(N2C[C@H](C(=O)NCC3CC3)[C@@H]3CCO[C@@H]3C2)s1  Sialic acid-binding Ig-like lectin 9 (Homo sapiens) (UniProt Q9Y336)             2.6
2            CCn1cc(Br)c(C(=O)NCc2cccnc2)n1  Sialic acid-binding Ig-like lectin 9 (Homo sapiens) (UniProt Q9Y336)            5.82
3  Cc1nccn1-c1cc(CNC(=O)CCNC(=O)C2CCCC2)ccn1  Sialic acid-binding Ig-like lectin 9 (Homo sapiens) (UniProt Q9Y336)            9.11
4          CCc1cc(N2CCCNCC2)n2nc(C)c(C)c2n1  Sialic acid-binding Ig-like lectin 9 (Homo sapiens) (UniProt Q9Y336)             2.6
5  Cc1cnn(CC(C)NCc2nc(-c3cccnc3)no2)c1 (centres undefined)  Sialic acid-binding Ig-like lectin 9 (Homo sapiens) (UniProt Q9Y336)            7.77

Lab book: Percent Effect of `N#CCSCCCN1CCCN(C(=O)c2ccccc2)CC1` noted as 1.74

Lab book: Percent Effect of CC(C)c1nccn1C1CCCN(C(=O)c2cccc3c2OCO3)C1 (centres undefined) noted as 9.39

Lab book: Percent Effect of CCOC(=O)C1CCCN(c2ccc(-c3nc(C)no3)cn2)C1 (centres undefined) noted as 19.1

Lab book: Percent Effect of `CN(CCCc1ccccc1)Cc1nc2c(cnn2C)c(=O)[nH]1` noted as -2.26

Lab book: Percent Effect of `Cc1nc(CNCc2c(C)nn(C)c2N2CCOCC2)cs1` noted as 9.92

Lab book: Percent Effect of `O=C(c1ccsc1)N1CCOC2(CCN(Cc3cccnc3)CC2)C1` noted as 7.65

Lab book: Percent Effect of `O[C@H]1CCN(Cc2ccoc2)[C@H]1Cc1cccnc1` noted as -6.85

Lab book: Percent Effect of O=C(CCCOc1ccc(F)cc1)N1CCCC(n2cccn2)C1 (centres undefined) noted as 2.38

Lab book: Percent Effect of Cc1nc(C)n(CC2CCCN(CCNC(=O)OC(C)(C)C)C2)n1 (centres undefined) noted as 11.6

----------
Target or test system: AMP-activated protein kinase, AMPK (Homo sapiens) (UniProt P54646+O43741+P54619+Q9UGJ0+Q9Y478+Q13131+Q9UGI9)
Protocol: AMP-dependent Kinase enzyme assay. An in vitro enzyme assay that detects ADP turnover that is directly proportional to AMPK activity. This uses naive AMPK that is activated during the assay with MK-8722
Assay type: functional
Parameters: scale not given: direction of the effect not stated beside the values
Experimental conditions: 30 µM
Documented Percent Effect across a set of compounds
A complete answer gives the number and then names the unit.

# count of solved cases: 10
> print(dat)
                                    compound         measure  value.observed
 1  Cc1ccc(CN2CCc3ncnc(C4CCOC4)c3CC2)s1 (stereo not drawn)  Percent Effect           1.52%
 2  CC(NC(=O)NCc1cccc(N2CCCC2=O)c1)c1ccccc1 (stereo not drawn)  Percent Effect           4.82%
 3  CCc1nccn1C1CCCN(C(=O)c2ccc3[nH]cnc3c2)C1 (stereo not drawn)  Percent Effect           2.64%
 4  CC(C)Oc1ccccc1C1CC(=O)Nc2c1cnn2C (stereo not drawn)  Percent Effect           7.56%
 5  COc1cccc(CCC2CCCN(C(=O)c3n[nH]c4c3CCC4)C2)c1 (stereo not drawn)  Percent Effect           3.21%
 6  O=C(NCc1cccnc1)C1=NOC2(CCN(S(=O)(=O)C3CC3)C2)C1 (stereo not drawn)  Percent Effect          -3.17%
 7  COc1cccc(N2CCN(Cc3ccc(NC(C)=O)cc3)CC2=O)c1  Percent Effect          -5.61%
 8  COc1ccccc1CC(=O)NCc1c(C)nc2cc(=O)[nH]n2c1C  Percent Effect          -13.8%
 9             Cc1oc(C)c(C(=O)NCc2ccccn2)c1C  Percent Effect          -8.31%
10     Cc1noc(C(C)C)c1C(=O)NCc1cccc(N(C)C)c1  Percent Effect          -6.12%

Lab book: Percent Effect of `OCc1ccc(Cl)c(NCc2cccnc2)c1` noted as -0.207%

Lab book: Percent Effect of CC(C)(C)c1n[nH]c(C2CN(C(=O)c3cc(C4CC4)on3)CCO2)n1 (stereo not drawn) noted as 1.22%

Lab book: Percent Effect of `O=C(c1ccnnc1)N1C[C@@H]2CC[C@H](Oc3cccc(F)c3)[C@@H]2C1` noted as 15.2%

Lab book: Percent Effect of `CCn1nc2c(cc1=O)CN(Cc1nc(N)c3ccccc3n1)CC2` noted as -62.9%

Lab book: Percent Effect of CNS(=O)(=O)c1cccc(C(C)NCc2ccccc2)c1 (stereo not drawn) noted as 1.68%

Lab book: Percent Effect of `Cc1cnc(CNC(=O)NCc2cccnc2N(C)C)s1` noted as 1.02%

Lab book: Percent Effect of N#Cc1cccnc1NCCNC(=O)N1CCCC(C(F)(F)F)C1 (stereo not drawn) noted as -2.73%

Lab book: Percent Effect of `COCCO[C@@H]1CCN(Cc2csc(C)n2)[C@H]1Cc1ccccc1` noted as -0.151%

----------
Target or test system: Chromo domain-containing protein 1 (Saccharomyces cerevisiae (strain ATCC 204508 / S288c) (Baker's yeast)) (UniProt P32657)
Sequence (P32657 whole entry, the tested form may be a part): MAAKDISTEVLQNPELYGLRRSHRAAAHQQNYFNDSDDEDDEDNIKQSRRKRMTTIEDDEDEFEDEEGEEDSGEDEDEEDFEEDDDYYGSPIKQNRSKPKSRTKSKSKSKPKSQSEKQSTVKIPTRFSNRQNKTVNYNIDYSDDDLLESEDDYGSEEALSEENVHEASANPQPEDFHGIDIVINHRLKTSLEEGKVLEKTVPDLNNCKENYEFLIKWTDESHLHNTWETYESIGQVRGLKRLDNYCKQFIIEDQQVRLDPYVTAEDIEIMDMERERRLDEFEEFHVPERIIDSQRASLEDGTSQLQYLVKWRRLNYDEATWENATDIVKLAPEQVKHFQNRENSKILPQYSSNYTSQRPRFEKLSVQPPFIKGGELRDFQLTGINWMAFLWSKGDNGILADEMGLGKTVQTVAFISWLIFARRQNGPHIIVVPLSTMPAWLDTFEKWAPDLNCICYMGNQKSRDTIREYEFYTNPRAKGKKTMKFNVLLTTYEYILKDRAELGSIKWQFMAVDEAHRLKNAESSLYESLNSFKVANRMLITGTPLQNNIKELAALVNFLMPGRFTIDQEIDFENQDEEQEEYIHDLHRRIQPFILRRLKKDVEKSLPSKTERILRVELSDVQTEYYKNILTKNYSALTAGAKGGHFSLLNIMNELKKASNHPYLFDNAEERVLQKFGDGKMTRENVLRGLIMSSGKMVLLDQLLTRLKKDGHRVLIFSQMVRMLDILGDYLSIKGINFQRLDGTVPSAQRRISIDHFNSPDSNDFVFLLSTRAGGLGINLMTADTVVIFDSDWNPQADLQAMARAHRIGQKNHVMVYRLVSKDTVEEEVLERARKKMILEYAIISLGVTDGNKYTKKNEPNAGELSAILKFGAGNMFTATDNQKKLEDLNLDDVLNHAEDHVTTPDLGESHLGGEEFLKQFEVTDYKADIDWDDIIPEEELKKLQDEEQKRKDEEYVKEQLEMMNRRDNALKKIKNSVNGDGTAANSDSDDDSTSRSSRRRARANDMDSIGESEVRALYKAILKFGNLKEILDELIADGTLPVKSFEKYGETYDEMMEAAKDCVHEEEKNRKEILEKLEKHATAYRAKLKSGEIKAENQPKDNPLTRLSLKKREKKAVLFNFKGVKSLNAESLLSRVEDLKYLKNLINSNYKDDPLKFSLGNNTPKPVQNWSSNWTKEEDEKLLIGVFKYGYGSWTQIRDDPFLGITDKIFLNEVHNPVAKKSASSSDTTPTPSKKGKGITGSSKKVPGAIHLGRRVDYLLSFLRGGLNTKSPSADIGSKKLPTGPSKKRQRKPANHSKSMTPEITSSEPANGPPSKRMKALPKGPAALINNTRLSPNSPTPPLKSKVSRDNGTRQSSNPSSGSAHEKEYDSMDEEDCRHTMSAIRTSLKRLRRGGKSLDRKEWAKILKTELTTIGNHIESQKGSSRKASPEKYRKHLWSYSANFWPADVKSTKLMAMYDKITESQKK
Protocol: ScCHD-1 Enzyme Inhibition Assay; also: in the data most compounds retested in dose-response had high values
Type: functional
Set-up: scale not given: direction of the effect not stated beside the values
Experimental conditions: 30 µM
Measure: Percent Effect (%)
Give a bare numeral; the unit % is implied.

# count of solved cases: 5
> print(dat)
                                   molecule  units.label  value.observed
1  CCCS(=O)(=O)N1CCOCC2(CCN(c3ccccn3)C2)C1 (stereo unspecified)            %           -4.27
2  CC(Cn1cncn1)NCc1nncn1C1CCCCC1 (stereo unspecified)            %           -5.04
3          CCc1noc(CN2CCN(C(=O)N(C)C)CC2)n1            %           -4.89
4  CC(C)c1nn(C)c(N2CCOCC2)c1CNC(C)c1cccs1 (stereo unspecified)            %           -4.62
5         O=C(COc1cccc2c1CCC2=O)NCc1ccccc1F            %           -2.42

Lab book: Percent Effect of Cc1nc(C)n(CC2CCCCN2CCS(C)(=O)=O)n1 (stereo unspecified) noted as -3.45

Lab book: Percent Effect of `CS(=O)(=O)CCC(=O)Nc1cnn(-c2ccccc2Cl)c1` noted as -8.04

Lab book: Percent Effect of CCN1CCCC1CN(CCN(C)C)S(=O)(=O)c1cccc(C#N)c1 (stereo unspecified) noted as -4.67

Lab book: Percent Effect of `CNS(=O)(=O)Cc1ccc(CNC(=O)Nc2cn[nH]c2)cc1` noted as -0.403

Lab book: Percent Effect of `CC1CCN(CCNC(=O)c2ccccc2N2CCOCC2)CC1` noted as -2.45

Lab book: Percent Effect of `Cc1noc(C2CCN(C(=O)c3c(C)noc3C)CC2)n1` noted as -4.31

----------
Target or test system: Protein translocase subunit SecA (Escherichia coli (strain K12))
Protocol: Assay to Identify E. coli SecA ATPase Inhibitors
Type: functional
Set-up: scale not given: direction of the effect not stated beside the values
Experimental conditions: 30 µM
Entries with a potency or affinity are not part of this list.
Documented Percent Effect across a set of compounds
Give a bare numeral; the unit % is implied.

# count of solved cases: 4
> print(dat)
                                   compound         measure  value.observed
1  Cc1nc(CN2CCOC(Cn3cncn3)C2)nc2ccccc12 (stereo not given)  Percent Effect           -1.64
2  O=C(CCCc1ccc(F)cc1)N1C[C@@H](CN2CCOCC2)[C@@H](CO)C1  Percent Effect           -3.25
3  O=C(c1cnccn1)N1CCOC2(CCN(Cc3ccsc3)CC2)C1  Percent Effect           -1.55
4          Cn1ccc(CN2CCC(c3ccccc3)CC2)cc1=O  Percent Effect           -7.43

Next, consider the following compound.
Lab book: Percent Effect of `COC(=O)c1ccc(C(=O)NS(=O)(=O)c2cncc(Br)c2)cc1` noted as -4.86
